Target: MAP3K5 (human)
Assay: KINOMEscan competition binding
Conditions: compound 10.0 µM
Can you tell me kinase still bound, per cent of control for the items I'm about to list?
Answers are plain numbers, in %.

The examples below pair each entry with its known result.
kinase still bound, per cent of control of "N=C1NC(=O)/C(=C/c2ccc(-c3ccccc3O)o2)S1" , assay on MAP3K5 (human), is 19

Field kinase still bound, per cent of control (MAP3K5 (human)), entry "CN1C(=O)c2ccccc2N(C)c2nc(NS(=O)(=O)c3ccc(N)cc3)ncc21" : 100

The reported MAP3K5 (human) kinase still bound, per cent of control of "O=C1NC(=O)/C(=C/c2c[nH]c(=O)c(-c3ccc(N4CCNCC4)nc3)c2)S1" is 100

// for each compound below, give its kinase still bound, per cent of control
1. COc1cc(N2CCN(C)CC2)ccc1Nc1ncc2c(n1)N(C)c1ccccc1N(C)C2=O
2. CN1CCN(c2ccc(C(=O)Nc3ncc4c(n3)N(C)c3ccccc3C(=O)N4C)cc2)CC1
3. N=C1NC(=O)/C(=C/c2ccc(-c3ccc(C(N)=O)cc3O)o2)S1
4. CN1C(=O)c2ccccc2N(C)c2nc(Nc3ccc(N4CCC(O)CC4)cc3)ncc21
5. COc1cc(N2CCN(C)CC2)ccc1Nc1ncc2c(n1)N(C)c1sccc1C(=O)N2C

1: 100; 2: 94; 3: 31; 4: 100; 5: 74

* * *

Biological target: RPS6KA5 KD2 (human) (UniProt O75582)
Sequence (O75582 whole entry, looked up): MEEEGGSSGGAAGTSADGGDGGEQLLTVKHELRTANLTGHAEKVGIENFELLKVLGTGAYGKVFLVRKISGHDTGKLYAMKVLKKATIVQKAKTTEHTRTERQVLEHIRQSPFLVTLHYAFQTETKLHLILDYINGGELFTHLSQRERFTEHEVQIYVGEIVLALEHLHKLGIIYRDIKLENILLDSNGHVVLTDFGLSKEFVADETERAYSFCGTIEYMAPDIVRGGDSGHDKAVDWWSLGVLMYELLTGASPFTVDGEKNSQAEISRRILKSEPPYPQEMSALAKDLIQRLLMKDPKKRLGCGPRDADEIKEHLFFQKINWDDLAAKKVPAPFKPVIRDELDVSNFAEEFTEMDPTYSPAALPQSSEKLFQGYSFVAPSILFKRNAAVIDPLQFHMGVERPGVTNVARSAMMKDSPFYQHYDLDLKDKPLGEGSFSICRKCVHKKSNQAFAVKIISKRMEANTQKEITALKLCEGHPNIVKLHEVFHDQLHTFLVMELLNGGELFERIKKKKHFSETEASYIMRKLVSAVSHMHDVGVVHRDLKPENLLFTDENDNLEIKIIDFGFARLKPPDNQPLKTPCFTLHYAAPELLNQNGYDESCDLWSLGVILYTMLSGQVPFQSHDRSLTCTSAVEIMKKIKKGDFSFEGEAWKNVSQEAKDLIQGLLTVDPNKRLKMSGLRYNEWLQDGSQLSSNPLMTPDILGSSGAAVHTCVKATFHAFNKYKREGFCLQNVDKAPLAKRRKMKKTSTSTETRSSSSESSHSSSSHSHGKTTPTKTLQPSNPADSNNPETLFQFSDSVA
Experiment: KINOMEscan competition binding
Settings: compound 10.0 µM
reported_endpoint: kinase still bound, per cent of control (%)
Give bare numbers, in %.

Record "CSC1=NC(=O)/C(=C/c2c[nH]c(=O)c(-c3ccc(NS(C)(=O)=O)cc3)c2)S1" , field kinase still bound, per cent of control: 11

kinase still bound, per cent of control reading for "COc1cc(N2CCN(C)CC2)ccc1Nc1ncc2c(n1)N(C)c1ccccc1N(C)C2=O" : 93

The molecule listed as "N=C1NC(=O)/C(=C/c2c[nH]c(=O)c(-c3ccc4cc[nH]c4c3)c2)S1" has a reported kinase still bound, per cent of control of 23

Measured kinase still bound, per cent of control, "N=C1NC(=O)/C(=C/c2c[nH]c(=O)c(-c3ccc(S(N)(=O)=O)cc3)c2)S1" : 2.2

Reported kinase still bound, per cent of control ( "N=C1NC(=O)/C(=C/c2ccc(-c3ccccc3O)o2)S1" ) = 29

The following molecules each have a reported value; give each one's kinase still bound, per cent of control.
1. Nc1cccc(-c2cc(/C=C3\SC(=O)NC3=O)c[nH]c2=O)c1
2. N=C1NC(=O)/C(=C/c2ccc(-c3ccc(F)cc3O)o2)S1
3. CN1C(=O)c2ccccc2N(C)c2nc(NS(=O)(=O)c3ccc(N)cc3)ncc21
4. COc1cc(N2CCN(C)CC2)ccc1Nc1ncc2c(n1)Nc1ccccc1NC2=O
5. N=C1NC(=O)/C(=C/c2c[nH]c(=O)c(-c3ccc(N4CCNCC4)nc3)c2)S1

1: 11; 2: 24; 3: 100; 4: 92; 5: 11

* * *

So I've got a bunch of compounds here, and I need their kinase still bound, per cent of control values.
Biological target: UniProt P11309
Sequence (P11309 whole entry, looked up): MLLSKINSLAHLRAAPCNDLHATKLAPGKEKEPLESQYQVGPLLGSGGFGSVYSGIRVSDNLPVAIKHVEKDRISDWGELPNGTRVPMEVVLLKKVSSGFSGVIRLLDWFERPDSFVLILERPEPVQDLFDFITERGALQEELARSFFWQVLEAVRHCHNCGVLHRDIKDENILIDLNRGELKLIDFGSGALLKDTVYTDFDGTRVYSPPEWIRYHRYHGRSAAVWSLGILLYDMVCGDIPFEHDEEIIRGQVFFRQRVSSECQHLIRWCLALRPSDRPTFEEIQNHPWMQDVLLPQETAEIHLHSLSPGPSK
Assay: KINOMEscan competition binding
Settings: compound 10.0 µM
Give bare numbers, in %.

Given the compound "CN1C(=N)NC(=O)/C1=C/c1ccc(-c2cccc3ccccc23)o1" and test system UniProt P11309, the measured kinase still bound, per cent of control is 27

Measured on UniProt P11309, "CS(=O)(=O)Nc1ccc(-c2cc(/C=C3\SC(=N)NC3=O)c[nH]c2=O)cc1" has a documented kinase still bound, per cent of control of 9.5

Observed kinase still bound, per cent of control, UniProt P11309, "NS(=O)(=O)c1ccc(-c2ccc(/C=C3\SC(=S)N(CC(=O)O)C3=O)o2)cc1" : 33

Summary line: "O=C1NC(=O)/C(=C/c2ccc(-c3ccc4c(C(=O)Nc5cccc(C(F)(F)F)c5)cccc4c3)o2)S1" , UniProt P11309, reported kinase still bound, per cent of control = 14

Parameters: items (list). Returns: kinase still bound, per cent of control for each item.
1. N=C1NC(=O)/C(=C/c2ccc(-c3ccc(Cl)cc3)o2)S1
2. CC(=O)Nc1ccc(-c2ccc(/C=C3\SC(=N)NC3=O)o2)c(O)c1
3. N=C1NC(=O)/C(=C/c2ccc(-c3cccc4cc[nH]c34)o2)S1
4. CN1C(=O)c2ccccc2N(C)c2nc(NS(=O)(=O)c3ccc(N)cc3)ncc21
5. N=C1NC(=O)/C(=C/c2ccc(-c3ccc(F)cc3O)o2)S1

1: 9.2; 2: 1.6; 3: 4.9; 4: 100; 5: 3.8

* * *

Target: INSR (human) (UniProt P06213)
Sequence (P06213 whole entry, looked up): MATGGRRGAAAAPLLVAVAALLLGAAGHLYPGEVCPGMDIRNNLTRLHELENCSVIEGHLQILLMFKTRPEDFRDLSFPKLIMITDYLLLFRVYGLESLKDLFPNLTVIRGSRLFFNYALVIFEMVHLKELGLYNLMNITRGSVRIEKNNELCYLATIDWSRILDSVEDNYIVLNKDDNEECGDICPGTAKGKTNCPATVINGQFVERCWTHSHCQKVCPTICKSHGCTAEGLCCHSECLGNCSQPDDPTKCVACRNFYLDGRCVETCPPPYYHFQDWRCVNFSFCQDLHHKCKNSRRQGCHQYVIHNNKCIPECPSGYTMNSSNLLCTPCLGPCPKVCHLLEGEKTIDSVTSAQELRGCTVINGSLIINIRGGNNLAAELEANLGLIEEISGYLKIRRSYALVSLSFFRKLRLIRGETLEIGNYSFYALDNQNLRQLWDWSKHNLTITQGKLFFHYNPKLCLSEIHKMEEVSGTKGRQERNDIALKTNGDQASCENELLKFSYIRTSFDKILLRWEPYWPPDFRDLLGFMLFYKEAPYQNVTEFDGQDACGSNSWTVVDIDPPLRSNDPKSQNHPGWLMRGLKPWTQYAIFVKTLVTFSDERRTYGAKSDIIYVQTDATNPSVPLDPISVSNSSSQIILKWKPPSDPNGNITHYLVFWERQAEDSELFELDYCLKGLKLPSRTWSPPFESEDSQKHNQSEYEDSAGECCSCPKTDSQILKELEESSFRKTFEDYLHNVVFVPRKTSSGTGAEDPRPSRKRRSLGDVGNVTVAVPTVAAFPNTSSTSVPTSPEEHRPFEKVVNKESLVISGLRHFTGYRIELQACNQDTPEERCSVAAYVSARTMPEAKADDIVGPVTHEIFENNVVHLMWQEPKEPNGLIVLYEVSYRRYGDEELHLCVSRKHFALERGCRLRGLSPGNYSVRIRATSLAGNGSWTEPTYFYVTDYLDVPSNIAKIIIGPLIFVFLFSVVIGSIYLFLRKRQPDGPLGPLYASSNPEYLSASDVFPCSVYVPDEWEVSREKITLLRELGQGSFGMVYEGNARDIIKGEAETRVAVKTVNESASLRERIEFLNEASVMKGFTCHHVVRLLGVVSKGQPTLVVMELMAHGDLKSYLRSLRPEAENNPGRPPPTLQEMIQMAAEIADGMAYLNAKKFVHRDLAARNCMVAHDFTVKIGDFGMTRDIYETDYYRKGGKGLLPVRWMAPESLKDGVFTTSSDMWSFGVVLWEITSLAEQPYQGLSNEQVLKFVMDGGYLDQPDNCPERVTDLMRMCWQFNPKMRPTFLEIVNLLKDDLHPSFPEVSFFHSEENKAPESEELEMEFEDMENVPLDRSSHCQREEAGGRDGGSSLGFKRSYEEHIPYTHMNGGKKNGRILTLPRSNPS
Assay: KINOMEscan competition binding
Details: compound 10.0 µM
reported_endpoint: kinase still bound, per cent of control (%)
Answers are plain numbers, in %.

Measured kinase still bound, per cent of control of "COc1cc(N2CCC(C)(O)CC2)ccc1Nc1ncc2c(n1)N(C1CCCC1)CCC(=O)N2C" : 28

# molecule COc1cc(C(=O)NC2CCN(C)CC2)ccc1Nc1ncc2c(n1)N(C1CCC(O)CC1)CCC(=O)N2C (stereo not drawn) ; its kinase still bound, per cent of control = 30

Memo: "CN1CCN(c2ccc(C(=O)Nc3ncc4c(n3)N(C)c3ccccc3C(=O)N4C)cc2)CC1" , reported kinase still bound, per cent of control: 100

Note to self: kinase still bound, per cent of control recorded for "COc1cc(N2CCN(CCO)CC2)ccc1Nc1ncc2c(n1)N(C1CCCC1)CCC(=O)N2C" was 30

The measured kinase still bound, per cent of control associated with "O=C1NC(=O)/C(=C/c2c[nH]c(=O)c(-c3ccc(N4CCNCC4)nc3)c2)S1" reads 54

Data point: "COc1cc(N2CCC(O)CC2)ccc1Nc1ncc2c(n1)N1CCc3cccc(c31)C(=O)N2C" ; kinase still bound, per cent of control = 53

Measured kinase still bound, per cent of control, "COc1cc(N2CCN(C)CC2)ccc1Nc1ncc2c(n1)N(C)c1ccccc1N(C)C2=O" : 52

Moving on to the next molecule.
Recorded kinase still bound, per cent of control (molecule "COc1cc(C(=O)NC2CCN(C)CC2)ccc1Nc1ncc2c(n1)N(C1CCCC1)CCC(=O)N2C" ): 32

* * *

Molecular target: MARK2 (human)
Assay: KINOMEscan competition binding
Details: compound 10.0 µM
reported_endpoint: kinase still bound, per cent of control (%)
Answers are plain numbers, in %.

Solved entries:
// "COc1cc(N2CCN(C)CC2)ccc1Nc1ncc2c(n1)N(C)c1sccc1C(=O)N2C" : kinase still bound, per cent of control value = 100

For record "COc1cc(N2CCN(C)CC2)ccc1Nc1ncc2c(n1)N(C)c1ccccc1N(C)C2=O" the listed kinase still bound, per cent of control is 100

***
Entry "CN1C(=O)c2ccccc2N(C)c2nc(Nc3ccc(N4CCC(O)CC4)cc3)ncc21" — recorded kinase still bound, per cent of control = 51

* * *

Target: AURKC (human)
Test: KINOMEscan competition binding
Conditions: compound 10.0 µM
reported_endpoint: kinase still bound, per cent of control (%)
Numbers only, in %.

Some entries whose results are on file:
Query "CN1C(=O)[C@H]2CCC[C@H]2N(C2CCCC2)c2nc(Nc3ccc(C(N)=O)cc3)ncc21" yields kinase still bound, per cent of control of 2.2

According to the records, this compound "COc1cc(N2CCN(C)CC2)ccc1Nc1ncc2c(n1)Nc1ccccc1NC2=O" displays kinase still bound, per cent of control of 55

Record "O=C1NC(=O)/C(=C/c2c[nH]c(=O)c(-c3ccc(N4CCNCC4)nc3)c2)S1" . Reported kinase still bound, per cent of control: 57

Reported kinase still bound, per cent of control for "N=C1NC(=O)/C(=C/c2ccc(-c3cncc4ccccc34)o2)S1" was 0.3

Okay, now this compound:
The compound listed as "COc1cc(N2CCC(O)CC2)ccc1Nc1ncc2c(n1)N(C)c1ccccc1C(=O)N2C" shows kinase still bound, per cent of control equal to 15

* * *

Molecular target: CSNK1G1 (human) (UniProt Q9HCP0)
Sequence (Q9HCP0 whole entry, looked up): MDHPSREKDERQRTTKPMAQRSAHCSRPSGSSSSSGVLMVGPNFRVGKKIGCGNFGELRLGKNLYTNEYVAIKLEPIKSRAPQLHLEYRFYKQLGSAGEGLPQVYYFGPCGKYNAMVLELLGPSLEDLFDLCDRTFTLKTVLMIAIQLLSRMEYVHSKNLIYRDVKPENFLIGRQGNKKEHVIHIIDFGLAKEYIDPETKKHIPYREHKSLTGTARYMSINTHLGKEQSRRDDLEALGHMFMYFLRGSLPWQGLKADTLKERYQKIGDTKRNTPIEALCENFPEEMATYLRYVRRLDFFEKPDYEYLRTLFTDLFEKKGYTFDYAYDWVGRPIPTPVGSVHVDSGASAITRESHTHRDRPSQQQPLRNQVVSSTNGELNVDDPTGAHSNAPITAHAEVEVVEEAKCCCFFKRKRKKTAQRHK
Experiment: KINOMEscan competition binding
Details: compound 10.0 µM
Rule for this label: 1 (yes) means kinase still bound, per cent of control is less than 40%; 0 (no) means kinase still bound, per cent of control is at least 40%.

Answered examples (5):
Consider "COc1cc(N2CCN(C)CC2)ccc1Nc1ncc2c(n1)Nc1ccccc1NC2=O" . Does its kinase still bound, per cent of control lie strictly below 40%?
0 (no)

State whether 40% exceeds kinase still bound, per cent of control recorded for "COc1cc(N2CCC(O)CC2)ccc1Nc1ncc2c(n1)N1CCc3cccc(c31)C(=O)N2C" .
0 (no)

Given "N=C1NC(=O)/C(=C/c2c[nH]c(=O)c(-c3ccc4cc[nH]c4c3)c2)S1" , is recorded kinase still bound, per cent of control strictly lower than 40%?
1 (yes)

Lab note: kinase still bound, per cent of control threshold 40%. Does this molecule come in strictly under it? "O=C1NC(=O)/C(=C/c2c[nH]c(=O)c(-c3ccc(N4CCNCC4)nc3)c2)S1"
1 (yes)

I wonder whether "CN1C(=O)[C@H]2CCC[C@H]2N(C2CCCC2)c2nc(Nc3ccc(C(N)=O)cc3)ncc21" has kinase still bound, per cent of control below 40%. Can you tell?
1 (yes)

---
Hello, I'm reviewing records and need to know if kinase still bound, per cent of control of "CS(=O)(=O)Nc1ccc(-c2cncc(/C=C3\SC(=N)NC3=O)c2)cc1" is below 40%. Could you check?
1 (yes)

The measurements presented in this section are drawn from the kinase profiling compilation of Christmann-Franck et al. (2016).
